The reported numbers originate from patent US4845102A.

assay_name: in vivo
experimental_context: rat, rats, oral dosing
property_label: LD50 (mg/kg)

>>> measured_result("CCCn1cnc2c1c(=O)n(CCCCC(C)=O)c(=O)n2C")
1150

---

assay_name: in vivo
experimental_context: rat, rats, intravenous injection
property_label: LD50

>>> measured_result("CCCn1cnc2c1c(=O)n(CCCCC(C)=O)c(=O)n2C")
"180 mg/kg"

---

System: stress-induced gastric ulcer
assay_name: Protective effect on gastric ulcer induced by restraint plus water-immersion stress in rats
Assay type: in vivo, Male Sprague-Dawley rats
experimental_context: Table 3 (efficacy comparison), 10 mg/kg po, mean ± S.E.
This listing pairs compounds with measured Ulcer index.
property_label: Ulcer index

>>> measured_result("CCn1cnc2c1c(=O)n(CCCCC(C)=O)c(=O)n2C")
"4.5 ± 0.9 mm"
>>> measured_result("CCCn1cnc2c1c(=O)n(CCCC(C)=O)c(=O)n2C")
"6.5 ± 1.6 mm"
>>> measured_result("CCCn1cnc2c1c(=O)n(CCCCC(C)=O)c(=O)n2C")
"8.6 ± 2.3 mm"
>>> measured_result("CC(=O)CCCCn1c(=O)c2c(ncn2C)n(C)c1=O [Pentoxifylline, reference compound]")
"17.2 ± 5.6 mm"
